Test: Cleavage kinetics (stability) of tyrosine based linker derivatives in buffer at pH 4 and pH 7.4, HPLC
Format: physicochemical
Conditions: summary of Table 1, pH 4 and pH 7.4, up to 24 h, room temperature
METRIC NAME: cleavage kinetic (in words)

{"COMPOUND": "N[C@@H](CCNC(=O)Oc1ccc(C[C@H](N)C(=O)Nc2ccccc2)cc1)C(=O)NCCOCCOCCOCCn1cc(-c2ccccc2)nn1 [Example 10Cb]", "VALUE REPORTED": "cleaved slowly"}
{"COMPOUND": "NCCC[C@H](NC(=O)Oc1ccc(C[C@H](N)C(=O)Nc2ccccc2)cc1)C(=O)N[C@@H](CSC1CC(=O)N(Cc2ccccc2)C1=O)C(N)=O (stereo partly drawn)", "VALUE REPORTED": "cleaved quickly"}
{"COMPOUND": "N[C@@H](Cc1ccc(OC(=O)NCC[C@H](N)C(=O)N[C@@H](CSC2CC(=O)N(Cc3ccccc3)C2=O)C(=O)Nc2ccccc2)cc1)C(=O)Nc1ccccc1 (stereo partly drawn) [Example 12C]", "VALUE REPORTED": "cleaved quickly"}
{"COMPOUND": "NCC[C@H](NC(=O)Oc1ccc(C[C@H](N)C(=O)Nc2ccccc2)cc1)C(=O)N[C@@H](CSC1CC(=O)N(Cc2ccccc2)C1=O)C(N)=O (stereo partly drawn)", "VALUE REPORTED": "cleaved quickly"}
{"COMPOUND": "NC(=O)[C@H](CSC1CC(=O)N(Cc2ccccc2)C1=O)NC(=O)[C@@H](N)CCCNC(=O)Oc1ccc(C[C@H](N)C(=O)Nc2ccccc2)cc1 (stereo partly drawn)", "VALUE REPORTED": "cleaved slowly"}

* * *

Experiment: Cleavage kinetics (stability) of tyrosine based linker derivatives in buffer at pH 4 and pH 7.4, HPLC
Assay type: physicochemical
Conditions: pH 7.4 buffer/acetonitrile, room temperature, 6 h, HPLC peak area

{"COMPOUND": "NC(=O)CNC(=O)[C@H](CSC1CC(=O)N(Cc2ccccc2)C1=O)NC(=O)[C@@H](N)CCNC(=O)Oc1ccc(C[C@H](N)C(=O)Nc2ccccc2)cc1 (some centres unmarked)", "MEASUREMENT UNIT": "%", "% cleaved pH 7.4, 6 h": 6}
{"COMPOUND": "NCC[C@H](NC(=O)Oc1ccc(C[C@H](N)C(=O)Nc2ccccc2)cc1)C(=O)N[C@@H](CSC1CC(=O)N(Cc2ccccc2)C1=O)C(N)=O (some centres unmarked)", "MEASUREMENT UNIT": "%", "% cleaved pH 7.4, 6 h": 75}
{"COMPOUND": "NC[C@H](NC(=O)Oc1ccc(C[C@H](N)C(=O)Nc2ccccc2)cc1)C(=O)N[C@@H](CSC1CC(=O)N(Cc2ccccc2)C1=O)C(N)=O (some centres unmarked) [Example 11C]", "MEASUREMENT UNIT": "%", "% cleaved pH 7.4, 6 h": 100}
{"COMPOUND": "NC(=O)[C@H](CSC1CC(=O)N(Cc2ccccc2)C1=O)NC(=O)[C@@H](N)CCCNC(=O)Oc1ccc(C[C@H](N)C(=O)Nc2ccccc2)cc1 (some centres unmarked)", "MEASUREMENT UNIT": "%", "% cleaved pH 7.4, 6 h": 2}
{"COMPOUND": "NCCC[C@H](NC(=O)Oc1ccc(C[C@H](N)C(=O)Nc2ccccc2)cc1)C(=O)N[C@@H](CSC1CC(=O)N(Cc2ccccc2)C1=O)C(N)=O (some centres unmarked)", "MEASUREMENT UNIT": "%", "% cleaved pH 7.4, 6 h": 23}
